Cited source for all entries: patent US12410136B2

Catalogue of Ki readings, one per entry.
# measured.target: human recombinant D3 receptor (Homo sapiens, UniProt P35462)
# Construct: expressed in transfected cells; host or cells: CHO
# Sequence (P35462 whole entry): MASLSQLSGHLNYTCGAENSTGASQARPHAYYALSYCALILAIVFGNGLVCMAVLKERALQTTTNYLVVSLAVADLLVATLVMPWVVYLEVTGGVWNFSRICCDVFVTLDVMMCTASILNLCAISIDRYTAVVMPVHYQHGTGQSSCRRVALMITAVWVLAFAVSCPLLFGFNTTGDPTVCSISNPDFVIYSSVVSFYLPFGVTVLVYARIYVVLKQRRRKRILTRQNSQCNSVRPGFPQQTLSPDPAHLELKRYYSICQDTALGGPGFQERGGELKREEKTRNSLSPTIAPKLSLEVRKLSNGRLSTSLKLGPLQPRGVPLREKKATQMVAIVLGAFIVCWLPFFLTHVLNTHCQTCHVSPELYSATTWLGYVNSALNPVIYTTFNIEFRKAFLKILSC
# test.summary: Dopamine D3 receptor binding test
# measurement.conditions: [3H]methyl-spiperone 0.3 nM, human recombinant D3 receptor expressed in CHO cells; read-out: Affinity of the compound for each receptor (Ki value, nM) D3
Entry rule: numbers only, all in nM.

COc1ccc(-c2cc(N3CCOCC3)nc(N3CCN(CC[C@H]4CC[C@H](NC(=O)N5CCCC5)CC4)CC3)c2)cc1; 0.2
O=C(N[C@H]1CC[C@H](CCN2CCN(c3cc(-c4ccccc4)cc(N4CCOCC4)n3)CC2)CC1)C1CC1; 0.05

Any idea what Ki was measured for O=C(N[C@H]1CC[C@H](CCN2CCN(c3cc(-c4cccs4)cc(N4CCOCC4)n3)CC2)CC1)C1CC1 ?
0.08

Any idea what Ki was measured for O=C(N[C@H]1CC[C@H](CCN2CCN(c3cc(-c4ccc(F)cc4)cc(N4CCOCC4)n3)CC2)CC1)c1cccnc1 ?
0.07

Any idea what Ki was measured for COc1ccc(-c2cc(N3CCOCC3)nc(N3CCN(CC[C@H]4CC[C@H](NC(=O)N5CCOCC5)CC4)CC3)c2)cc1 ?
0.07

Any idea what Ki was measured for O=C(N[C@H]1CC[C@H](CCN2CCN(c3cc(-c4cccs4)cc(N4CCOCC4)n3)CC2)CC1)N1CCCC1 ?
0.07

Any idea what Ki was measured for CCC(=O)N[C@H]1CC[C@H](CCN2CCN(c3cc(-c4cccnc4)cc(N4CCOCC4)n3)CC2)CC1 ?
0.05

Any idea what Ki was measured for O=C(N[C@H]1CC[C@H](CCN2CCN(c3cc(-c4ccc[nH]4)cc(N4CCOCC4)n3)CC2)CC1)c1ccco1 ?
0.1

Any idea what Ki was measured for O=C(N[C@H]1CC[C@H](CCN2CCN(c3cc(-c4ccccc4)cc(N4CCOCC4)n3)CC2)CC1)C1CCCCC1 ?
0.9

Any idea what Ki was measured for CN(C)C(=O)N[C@H]1CC[C@H](CCN2CCN(c3cc(-c4ccc[nH]4)cc(N4CCOCC4)n3)CC2)CC1 ?
0.03

Any idea what Ki was measured for CN(C)C(=O)N[C@H]1CC[C@H](CCN2CCN(c3cc(-c4cccnc4)cc(N4CCOCC4)n3)CC2)CC1 ?
0.1

Any idea what Ki was measured for O=C(N[C@H]1CC[C@H](CCN2CCN(c3cc(-c4ccc(F)cc4)cc(N4CCOCC4)n3)CC2)CC1)c1ccco1 ?
0.09

Any idea what Ki was measured for O=C(N[C@H]1CC[C@H](CCN2CCN(c3cc(-c4ccc[nH]4)cc(N4CCOCC4)n3)CC2)CC1)N1CCCCC1 ?
0.3

Any idea what Ki was measured for CCOC(=O)N[C@H]1CC[C@H](CCN2CCN(c3cc(-c4ccccc4)cc(N4CCOCC4)n3)CC2)CC1 ?
0.08

Any idea what Ki was measured for CCC(=O)N[C@H]1CC[C@H](CCN2CCN(c3cc(-c4ccc[nH]4)cc(N4CCOCC4)n3)CC2)CC1 ?
0.28
